Data provenance is ChEMBL document CHEMBL5126675.

Observed IC50, system Protein mono-ADP-ribosyltransferase TIPARP (Homo sapiens, UniProt Q7Z3E1).

Structure: C[C@@H](COCCC(=O)N1CCN2c3ncc(Cl)cc3OCC[C@@H]2C1)Oc1cn[nH]c(=O)c1C(F)(F)F
Units label: nM
IC50: 1.01

Structure: C[C@@H](COCCC(=O)N1CCN2c3ncc(C(F)(F)F)cc3OC[C@@H]2C1)Oc1cn[nH]c(=O)c1C(F)(F)F
Units label: nM
IC50: 1.24

----------
bioavailability values, listed per item
Protocol description: Oral bioavailability in mouse at 100 mg/kg administered as single dose
Assay type: ADME, organism-based
Experimental setup: in vivo

Structure: C[C@@H](COCCC(=O)N1CCN2c3ncc(Cl)cc3OCC[C@@H]2C1)Oc1cn[nH]c(=O)c1C(F)(F)F
bioavailability [%]: 106
//
Structure: C[C@@H](COCCC(=O)N1CCN2c3ncc(C(F)(F)F)cc3OC[C@@H]2C1)Oc1cn[nH]c(=O)c1C(F)(F)F
bioavailability [%]: 121
